target: Myeloid differentiation primary response protein MyD88 (Homo sapiens); assay: Inhibition of MyD88 homodimerization by yeast two-hybrid assay
Calls of active or inactive are those of the source. The rule behind the calls is not given here.
measured.quantity: Activity

Illustrative cases are given below, each with its answer.
sample.smiles	Activity
NC(=O)[C@H]1CCS[C@@H]2C[C@]3(CCCN3C(=O)c3nc(NC(=O)COc4ccc(Cl)cc4)n[nH]3)C(=O)N12	Active
Cc1cnc(C(=O)Nc2ccc(C(=O)NCCC(=O)N3CCC[C@]34C[C@H]3SCC[C@H](C(N)=O)N3C4=O)cc2)cn1	Active
N=C(N)NCCCCNC(=O)c1ccc2cc(NC(=O)CN3C(=O)[C@@H]4C[C@@H](O)CN4C(=O)c4ccccc43)ccc2c1	Active
NC(=O)[C@H]1CCS[C@@H]2C[C@]3(CCCN3C(=O)Cc3ccc(NC(=O)COc4ccc(Cl)cc4Cl)cc3)C(=O)N12	Active

As a next step, examine the compound that follows.
Data request: Quick one: Activity of "NC(=O)CN1CCC[C@]2(CCCN2C(=O)CCNC(=O)c2ccc(NC(=O)Cc3cccc4ccccc34)cc2)C1=O" ?
Data returned: Active
